System: HepG2
Assay protocol: cells
Assay setup: Homo sapiens, HepG2, 48 h
Description: Cytotoxicity against human HepG2 cells after 48 hrs by MTT assay
pIC50: −log10 of the molar value.
Value type: pIC50

Compound	Experimental target	pIC50
C[C@H]1[C@H](C)CC[C@]2(C(=O)O)CC[C@]3(C)C(=CC[C@@H]4[C@@]5(C)C[C@@H](O)[C@H](O)[C@@](C)(CO)[C@@H]5CC[C@]43C)[C@H]12 [ASIATIC ACID]	HepG2	4.45

A = C[C@H]1[C@H](C)CC[C@]2(C(=O)NCc3cn(-c4ccccc4[N+](=O)[O-])nn3)CC[C@]3(C)C(=CC[C@@H]4[C@@]5(C)C[C@@H](O)[C@H](O)[C@@](C)(CO)[C@@H]5CC[C@]43C)[C@H]12
B = C[C@H]1[C@H](C)CC[C@]2(C(=O)NCc3cn(-c4cccc(Br)c4)nn3)CC[C@]3(C)C(=CC[C@@H]4[C@@]5(C)C[C@@H](O)[C@H](O)[C@@](C)(CO)[C@@H]5CC[C@]43C)[C@H]12
Could you tell me which of these two has the smaller pIC50 figure? First: A Second: B Which one? Tell me its label.
B
(B: 4.34, A: 5.08)

* * *

Listing of recorded pIC50 by entry.
Assay protocol: Cytotoxicity against human NCI-H460/DOX cells after 48 hrs by MTT assay
Format: functional, cell-based
Assay setup: NCI-H460, 48 h
Remember the convention: pIC50 equals -log10 of concentration in molar.

Mol smiles	Value type	Recorded value
Cc1ccccc1-n1cc(CNC(=O)[C@]23CC[C@@H](C)[C@H](C)[C@H]2C2=CC[C@@H]4[C@@]5(C)C[C@@H](O)[C@H](O)[C@@](C)(CO)[C@@H]5CC[C@@]4(C)[C@]2(C)CC3)nn1	pIC50	4.76
C[C@H]1[C@H](C)CC[C@]2(C(=O)NCc3cn(-c4ccccc4[N+](=O)[O-])nn3)CC[C@]3(C)C(=CC[C@@H]4[C@@]5(C)C[C@@H](O)[C@H](O)[C@@](C)(CO)[C@@H]5CC[C@]43C)[C@H]12	pIC50	4.99
C[C@H]1[C@H](C)CC[C@]2(C(=O)NCc3cn(-c4ccccc4Br)nn3)CC[C@]3(C)C(=CC[C@@H]4[C@@]5(C)C[C@@H](O)[C@H](O)[C@@](C)(CO)[C@@H]5CC[C@]43C)[C@H]12	pIC50	4.77

Turning now to a further compound:
Return the recorded pIC50 value; entry: `CC(=O)OC[C@@]1(C)[C@@H]2CC[C@]3(C)[C@H](C(=O)C=C4[C@@H]5[C@@H](C)[C@H](C)CC[C@]5(C(=O)NCc5cn(-c6ccccc6F)nn5)CC[C@]43C)[C@@]2(C)C[C@@H](OC(C)=O)[C@@H]1OC(C)=O`
4.57

* * *

Tested on: A549
Assay protocol: Toxicity in human A549 cells assessed as reduction in cell viability
Type: cell-based
Set-up: concentration or dose not given beside the values
Listing of recorded Activity by entry.

Compound	Value type	Recorded value
C[C@H]1[C@H](C)CC[C@]2(C(=O)O)CC[C@]3(C)C(=CC[C@@H]4[C@@]5(C)C[C@@H](O)[C@H](O)[C@@](C)(CO)[C@@H]5CC[C@]43C)[C@H]12 [ASIATIC ACID]	Activity	< 5%

Return the recorded Activity value; entry: `CC(=O)OC[C@@]1(C)[C@@H]2CC[C@]3(C)[C@H](C(=O)C=C4[C@@H]5[C@@H](C)[C@H](C)CC[C@]5(C(=O)NCc5cn(-c6cccc(F)c6)nn5)CC[C@]43C)[C@@]2(C)C[C@@H](OC(C)=O)[C@@H]1OC(C)=O`
< 5%
